Measured self-splicing fitness (ln) of individual entries
- EXPERIMENT_DESCRIPTION: self-splicing fitness, log relative to wild type (ln ratio); higher = more splicing; Tetrahymena group I intron in knt gene, E. coli kanamycin selection, DiMSum; sequences stand for … in CUCUCU…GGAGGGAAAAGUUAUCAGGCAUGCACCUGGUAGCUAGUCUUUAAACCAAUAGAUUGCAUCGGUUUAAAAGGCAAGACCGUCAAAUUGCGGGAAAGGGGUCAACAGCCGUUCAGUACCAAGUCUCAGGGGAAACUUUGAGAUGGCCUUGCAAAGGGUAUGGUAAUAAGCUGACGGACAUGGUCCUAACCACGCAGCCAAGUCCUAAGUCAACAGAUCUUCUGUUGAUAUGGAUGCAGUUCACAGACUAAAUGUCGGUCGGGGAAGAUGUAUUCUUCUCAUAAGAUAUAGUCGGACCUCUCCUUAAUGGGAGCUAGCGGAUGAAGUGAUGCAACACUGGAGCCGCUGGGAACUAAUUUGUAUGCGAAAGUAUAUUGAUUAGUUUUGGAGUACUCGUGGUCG;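 further: selection with 25 µg/mL kanamycin versus none on LB agar overnight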
- CONDITION_CONTEXT: 30 °C
VALUE_TYPE: self-splicing fitness (ln)

* GCCUAGCAAUAUUACGUAAU | -0.648
* AGAGAGCAAUAUUACGUGUA | -2.73
* GGUUAGCAAUAUUACGUUUA | -1.5
* GAUCAGCAAUAUUACGACUA | -0.353
* AGCCAGCAAUAUUACGUGCC | -2.96
* UGUGAGCAAUAUUACGUUUG | -2.21
* CCACAGCAAUAUUACGCCCC | -2.07
* AUGGAGCAAUAUUACGCAGA | -2.19
* ACUUAGCAAUAUUACGCCAG | -2.16
* UACGAGCAAUAUUACGUCGC | -3.3
* AUGCAGCAAUAUUACGCUCA | -0.858
* AAGAAGCAAUAUUACGUGGG | -2.71
* UAGCAGCAAUAUUACGUAAC | -3.52
* GCGAAGCAAUAUUACGCAUA | -1.92
* CAUUAGCAAUAUUACGCUAA | -2.7
* GAAUAGCAAUAUUACGCAGA | -2.53

---

- EXPERIMENT_DESCRIPTION: self-splicing fitness, log relative to wild type (ln ratio); higher = more splicing; Tetrahymena group I intron in knt gene, E. coli kanamycin selection, DiMSum; sequences stand for … in CUCUCU…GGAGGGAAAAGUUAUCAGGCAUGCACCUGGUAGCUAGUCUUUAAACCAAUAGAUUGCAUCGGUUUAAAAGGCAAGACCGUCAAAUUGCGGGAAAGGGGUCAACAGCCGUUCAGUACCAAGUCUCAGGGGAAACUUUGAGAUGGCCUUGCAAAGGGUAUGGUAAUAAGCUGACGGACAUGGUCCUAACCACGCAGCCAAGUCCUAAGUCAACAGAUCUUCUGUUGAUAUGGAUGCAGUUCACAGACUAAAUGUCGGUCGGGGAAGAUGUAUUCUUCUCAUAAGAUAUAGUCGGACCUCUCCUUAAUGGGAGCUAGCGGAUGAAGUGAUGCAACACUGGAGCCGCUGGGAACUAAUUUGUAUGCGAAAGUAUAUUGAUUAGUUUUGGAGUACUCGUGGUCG
- CONDITION_CONTEXT: 30 °C
VALUE_TYPE: self-splicing fitness (ln)

- AACCAGCAAUAUUACGACCA: -0.702
- UGCUAGCAAUAUUACGCCCG: -0.583
- GUUGAGCAAUAUUACGUUCU: -1.82
- GGCAAGCAAUAUUACGCUUU: -1.58
- CACCAGCAAUAUUACGCCAA: -2.95
- GUGCAGCAAUAUUACGAAUC: -1.28
- ACCUAGCAAUAUUACGGGUG: -1.47
- CGGAAGCAAUAUUACGCUAU: -3.66
- GUAGAGCAAUAUUACGAUAA: -1.5
- UUCGAGCAAUAUUACGUGUU: -4.05
- AGCAAGCAAUAUUACGCAAU: -2.54
- CGAUAGCAAUAUUACGUAUU: -3.53
- UGUAAGCAAUAUUACGUUCG: 0.188
- CAAGAGCAAUAUUACGUUCU: -3.7
- UUUCAGCAAUAUUACGGUUA: 0.116
- UCAAAGCAAUAUUACGGCCC: -3.79
